Cited source for all entries: PubChem BioAssay AID248

Record form. Attribute: T/C. Fill in for each entry.
System: L1210 leukemia ip in BDF1 mice, survival T/C
experiment-notes: NCI In Vivo Anticancer Drug Screen. Data for tumor model L1210 Leukemia (intraperitoneal) in B6D2F1 (BDF1) mice
condition-label: endpoint: mean survival time; dose: 300.0 mg/kg/injection; schedule: Q01DX001 (ip); vehicle: carboxymethylcellulose (CMC); higher = longer survival
Inconclusive results and toxic doses are left out.

I need T/C for every entry listed below, if you could help.
1. Cc1c(O)ccc(=O)n1O
2. COc1cc(C=Nc2cc(Cl)c(OC)c(Cl)c2)ccc1N(CCCl)CCCl
3. CCn1c(=O)cc(C)c2ccccc21
4. CCOC(=O)C(=O)C1C(=O)C(=O)C(c2ccccc2)C1=O (centres undefined)

1: 112 % of control; 2: 122 % of control; 3: 96 % of control; 4: 105 % of control
